biological target: CD47 on HL-60 cells (细胞膜表面表达的CD47抗原) (UniProt Q08722); assay: flow cytometry, 20 μg/ml nanobody on HL-60 cells, anti-His staining
Here the recorded 结合率 is given for each entry.
resultType: 结合率

[
  {
    "binder": "CD47单域抗体 SEQ ID NO: 5 (VHH, His-tagged sdAb from pSJF2 in E. coli (Ni purification, anti-His detection); also called CD47纳米抗体) VHH: GVQLVESGGGLVQPGESLRLSCVASGFAFSSALMRWYRQAPGKERELVASVTTTGGITGYADSVKGRFTISRDNAENTLYLRMNSLKPEDTAVYYCRAYGFGLDSWGQGTQVTVSS",
    "resultType": "结合率",
    "observedValue": "> 99%"
  },
  {
    "binder": "CD47单域抗体 SEQ ID NO: 7 (VHH, His-tagged sdAb from pSJF2 in E. coli (Ni purification, anti-His detection); also called CD47纳米抗体) VHH: QVKLEESGGGLVQPGESLRLSCVASGFTFSDAHMRWYRQAPGKEREMVASISTTGSITIYADSVKGRFTISRDNDEKTVYLRMNSLKPEDTAAYYCRAYGFQIDSWGQGTQVTVSS",
    "resultType": "结合率",
    "observedValue": "> 99%"
  },
  {
    "binder": "CD47单域抗体 SEQ ID NO: 8 (VHH, His-tagged sdAb from pSJF2 in E. coli (Ni purification, anti-His detection); also called CD47纳米抗体) VHH: DVQLEESGGGLVQPGGSLRLSCAASGFTVSSYSMRWYRQAPGKERELVARITSTGEPIEYVESVKGRFTISRDNALNTLNLEMNDLKPEDTAVYYCWGAGYWGQGTQVTVSS",
    "resultType": "结合率",
    "observedValue": "> 99%"
  },
  {
    "binder": "CD47单域抗体 SEQ ID NO: 4 (VHH, His-tagged sdAb from pSJF2 in E. coli (Ni purification, anti-His detection); also called CD47纳米抗体) VHH: DVQLVESGGGSVQPGGSLTLSCAASGFTVSNYSMRWYRQAPGKERELIARITSTGVPIEYADSVKGRFTISRDNAKNTLYLEMNGLKPEDTAVYYCWGAAYWGQGTQVTVSS",
    "resultType": "结合率",
    "observedValue": "> 99%"
  },
  {
    "binder": "CD47单域抗体 SEQ ID NO: 9 (VHH, His-tagged sdAb from pSJF2 in E. coli (Ni purification, anti-His detection); also called CD47纳米抗体) VHH: AVKLVESGGGLVQPGGSLRLSCAASGFTVSNNNLRWYRQAPGKERELVAMITSAGNTNYADAVKGRSTISRDNAKNTLYLEMYRLKPEDTAVYYCWGAAHWGRGTQVTVSS",
    "resultType": "结合率",
    "observedValue": "> 99%"
  },
  {
    "binder": "CD47单域抗体 SEQ ID NO: 2 (VHH, His-tagged sdAb from pSJF2 in E. coli (Ni purification, anti-His detection); also called CD47纳米抗体) VHH: QVKLEESGGGLVQPGESLRLSCVASGFAFSSALMRWYRQAPGKERELVASITTAGGITGYADSVKGRFTISRDNAENTLYLQMNSLKPEDTAVYYCRAYGFQLDNWGQGTQVTVSS",
    "resultType": "结合率",
    "observedValue": "> 99%"
  },
  {
    "binder": "CD47单域抗体 SEQ ID NO: 6 (VHH, His-tagged sdAb from pSJF2 in E. coli (Ni purification, anti-His detection); also called CD47纳米抗体) VHH: QVKLEESGGGLVQPGGSLRLSCAASGLTFSSYSMRWYRQAPGQERELVARLTSSGEPIEYADSVKGRFTASRDNAKSTVYLQMNSLKPEDTAMYYCWIANYWGQGTQVTVSS",
    "resultType": "结合率",
    "observedValue": "> 99%"
  },
  {
    "binder": "CD47单域抗体 SEQ ID NO: 3 (VHH, His-tagged sdAb from pSJF2 in E. coli (Ni purification, anti-His detection); also called CD47纳米抗体) VHH: HVQLEESGGGLVQPGGSLRLSCKASGLTFASYSMRWYRQAPGQERELVARLSSSGVPIEYVDSVKGRFTASRDDAKSTLYLQMNSLKPEDTAMYYCWIANYWGQGTQVTVSS",
    "resultType": "结合率",
    "observedValue": "> 99%"
  },
  {
    "binder": "CD47单域抗体 SEQ ID NO: 1 (VHH, Expressed from pSJF2 in E. coli, purified on Ni column and detected with anti-His antibody, so it carried a His tag; also called CD47纳米抗体) VHH: DVKLVESGGGLVQPGGSLRLSCAASGFTVSSYSMRWYRQVPGKERELIARITSTGQPIEYGESVKGRFTISRDNAKNTLYLEMNALKPEDTAVYYCWGAGYWGQGTQVTVSS",
    "resultType": "结合率",
    "observedValue": "> 99%"
  },
  {
    "binder": "CD47单域抗体 SEQ ID NO: 10 (VHH, His-tagged sdAb from pSJF2 in E. coli (Ni purification, anti-His detection); also called CD47纳米抗体) VHH: GVKLVESGGGLVQPGGSLTLSCVASGFDFNSAHMRWYRQGPGKEREMVASISTTGGVTIYEDSVKGRFTISRDNADNTAYLRMNSLKPEDTAVYYCRAYGFGIDYWGQGTQVTVSS",
    "resultType": "结合率",
    "observedValue": "> 99%"
  }
]

Cited source: patent CN110981959A
